The values you see were collected from patent US20080206761A1.

tested on: IL-2 mRNA; experiment: PHA-induced IL-2 mRNA expression in heparinized whole blood ex vivo; assay type: cell-based, human; details: Subject 3; supplement 30 min, then 100 μg/mL PHA 2 h; concentrations per footnote
I'd appreciate it if you marked entries met when ΔΔCt (mean ± standard deviation, n = 3), IL-2 mRNA is lower than 0.5 and not met when it is not.

>>> category("O=c1c(-c2ccc(O)cc2)coc2cc(O)cc(O)c12")
"met"
>>> category("O=C1O[C@H]([C@@H](O)CO)C(O)=C1O")
"not met"
>>> category("O=C(O[C@@H]1Cc2c(O)cc(O)cc2O[C@@H]1c1cc(O)c(O)c(O)c1)c1cc(O)c(O)c(O)c1 [EGCG, epigallocatechin gallate]")
"not met"
>>> category("COc1cc(/C=C/C(=O)CC(=O)/C=C/c2ccc(O)c(OC)c2)ccc1O")
"met"

* * *

tested on: TNF-α mRNA; test: PHA-induced TNF-α mRNA expression in heparinized whole blood ex vivo; type: cell-based, human; conditions: Subject 6; supplement 30 min, then 100 μg/mL PHA 2 h; concentrations per footnote
Sorting guide: entries reporting ΔΔCt (mean ± standard deviation, n = 3), TNFα mRNA beneath -0.02 go in the class 1 pile, the rest go in the class 0 pile.

>>> category("CC1=C(/C=C/C(C)=C/C=C/C(C)=C/CO)C(C)(C)CCC1")
"class 1"
>>> category("COc1cc(/C=C/C(=O)CC(=O)/C=C/c2ccc(O)c(OC)c2)ccc1O")
"class 0"
>>> category("O=C1O[C@H]([C@@H](O)CO)C(O)=C1O")
"class 1"
>>> category("O=C(O[C@@H]1Cc2c(O)cc(O)cc2O[C@@H]1c1cc(O)c(O)c(O)c1)c1cc(O)c(O)c(O)c1 [EGCG, epigallocatechin gallate]")
"class 1"

* * *

Measured ΔΔCt (mean ± standard deviation, n = 3), IL-2 mRNA values are reported for all entries that follow.
tested on: IL-2 mRNA; experiment: PHA-induced IL-2 mRNA expression in heparinized whole blood ex vivo; type: cell-based, human; conditions: Subject 2; supplement 30 min, then 100 μg/mL PHA 2 h; concentrations per footnote
RECORDED ENDPOINT: ΔΔCt (mean ± standard deviation, n = 3), IL-2 mRNA

>>> observed("O=C1O[C@H]([C@@H](O)CO)C(O)=C1O [VC, vitamin C]")
0.00
>>> observed("O=c1c(-c2ccc(O)cc2)coc2cc(O)cc(O)c12 [Gen., genistein]")
0.90
>>> observed("CC1=C(/C=C/C(C)=C/C=C/C(C)=C/CO)C(C)(C)CCC1 [VA, vitamin A]")
"−1.61"
>>> observed("COc1cc(/C=C/C(=O)CC(=O)/C=C/c2ccc(O)c(OC)c2)ccc1O [Cur., curcumin]")
2.51
>>> observed("O=C(O[C@@H]1Cc2c(O)cc(O)cc2O[C@@H]1c1cc(O)c(O)c(O)c1)c1cc(O)c(O)c(O)c1 [EGCG, epigallocatechin gallate]")
"−0.67"

* * *

Overview of recorded ΔΔCt (mean ± standard deviation, n = 3), IL-2 mRNA for various molecules
tested on: IL-2 mRNA; experiment: PHA-induced IL-2 mRNA expression in heparinized whole blood ex vivo; type: cell-based, human; conditions: Subject 4; supplement 30 min, then 100 μg/mL PHA 2 h; concentrations per footnote
RECORDED ENDPOINT: ΔΔCt (mean ± standard deviation, n = 3), IL-2 mRNA

>>> observed("CC1=C(/C=C/C(C)=C/C=C/C(C)=C/CO)C(C)(C)CCC1")
"−0.29"
>>> observed("O=c1c(-c2ccc(O)cc2)coc2cc(O)cc(O)c12")
0.08
>>> observed("O=C1O[C@H]([C@@H](O)CO)C(O)=C1O")
1.47
>>> observed("O=C(O[C@@H]1Cc2c(O)cc(O)cc2O[C@@H]1c1cc(O)c(O)c(O)c1)c1cc(O)c(O)c(O)c1 [EGCG, epigallocatechin gallate]")
0.81
>>> observed("COc1cc(/C=C/C(=O)CC(=O)/C=C/c2ccc(O)c(OC)c2)ccc1O")
0.33

* * *

# maps each entry to its ΔΔCt (mean ± standard deviation, n = 3), IL-2 mRNA
test system: IL-2 mRNA; experiment: PHA-induced IL-2 mRNA expression in heparinized whole blood ex vivo; type: cell-based, human; conditions: Subject 6; supplement 30 min, then 100 μg/mL PHA 2 h; concentrations per footnote
RECORDED ENDPOINT: ΔΔCt (mean ± standard deviation, n = 3), IL-2 mRNA

>>> observed("COc1cc(/C=C/C(=O)CC(=O)/C=C/c2ccc(O)c(OC)c2)ccc1O [Cur., curcumin]")
"0.01 ± 0.14"
>>> observed("O=C(O[C@@H]1Cc2c(O)cc(O)cc2O[C@@H]1c1cc(O)c(O)c(O)c1)c1cc(O)c(O)c(O)c1 [EGCG, epigallocatechin gallate]")
"1.1 ± 0.14"
>>> observed("CC1=C(/C=C/C(C)=C/C=C/C(C)=C/CO)C(C)(C)CCC1 [VA, vitamin A]")
"−0.26 ± 0.20"
>>> observed("O=C1O[C@H]([C@@H](O)CO)C(O)=C1O [VC, vitamin C]")
"1.02 ± 0.05"
>>> observed("O=c1c(-c2ccc(O)cc2)coc2cc(O)cc(O)c12 [Gen., genistein]")
"0.00 ± 0.27"

* * *

Listed below: ΔΔCt (mean ± standard deviation, n = 3), TNFα mRNA values for each entry.
tested on: TNF-α mRNA; experiment: PHA-induced TNF-α mRNA expression in heparinized whole blood ex vivo; type: cell-based, human; settings: Subject 3; supplement 30 min, then 100 μg/mL PHA 2 h; concentrations per footnote
RECORDED ENDPOINT: ΔΔCt (mean ± standard deviation, n = 3), TNFα mRNA

>>> observed("COc1cc(/C=C/C(=O)CC(=O)/C=C/c2ccc(O)c(OC)c2)ccc1O")
0.83
>>> observed("O=C(O[C@@H]1Cc2c(O)cc(O)cc2O[C@@H]1c1cc(O)c(O)c(O)c1)c1cc(O)c(O)c(O)c1 [EGCG, epigallocatechin gallate]")
0.33
>>> observed("CC1=C(/C=C/C(C)=C/C=C/C(C)=C/CO)C(C)(C)CCC1")
0.51
>>> observed("O=c1c(-c2ccc(O)cc2)coc2cc(O)cc(O)c12")
0.33
>>> observed("O=C1O[C@H]([C@@H](O)CO)C(O)=C1O")
"−0.04"

* * *

Readings of ΔΔCt (mean ± standard deviation, n = 3), TNFα mRNA for the listed compounds
test system: TNF-α mRNA; assay: PHA-induced TNF-α mRNA expression in heparinized whole blood ex vivo; assay type: cell-based, human; settings: Subject 2; supplement 30 min, then 100 μg/mL PHA 2 h; concentrations per footnote
RECORDED ENDPOINT: ΔΔCt (mean ± standard deviation, n = 3), TNFα mRNA

>>> observed("O=C1O[C@H]([C@@H](O)CO)C(O)=C1O")
0.10
>>> observed("CC1=C(/C=C/C(C)=C/C=C/C(C)=C/CO)C(C)(C)CCC1")
"−0.57"
>>> observed("O=c1c(-c2ccc(O)cc2)coc2cc(O)cc(O)c12")
"−1.01"
>>> observed("O=C(O[C@@H]1Cc2c(O)cc(O)cc2O[C@@H]1c1cc(O)c(O)c(O)c1)c1cc(O)c(O)c(O)c1 [EGCG, epigallocatechin gallate]")
"−0.63"
>>> observed("COc1cc(/C=C/C(=O)CC(=O)/C=C/c2ccc(O)c(OC)c2)ccc1O")
3.64
